system: HCT116 MTAP knockout cells; test: Human colon cancer HCT116 cell proliferation inhibition test (CellTiter-Glo, 6 days), MTAP knockout cells; type: cell-based; conditions: HCT-116, 144 h
Please provide measured IC50 for the entries that follow.
Respond with the bare value in nM.

In: API: value(readout=IC50, system=HCT116 MTAP knockout cells) for record CN(C(=O)c1ccc2nc(N)c3ccncc3c2c1)[C@@H]1CCc2cc(C(F)(F)F)ccc21
Out: 85

In: Next molecule: Cn1cc(N(C(=O)c2ccc3nc(N)c4c(cnn4C)c3c2)[C@H]2COc3cc(C(F)(F)F)ccc32)cn1
Out: 2640

In: Next molecule: Cn1cc(N(C(=O)c2cc3c(cc2F)nc(N)c2cnn(C)c23)[C@@H]2COc3cc(C(F)(F)F)ccc32)cn1
Out: 0.8

In: Next molecule: Cn1cc(N(C(=O)c2cc3c4c(c(N)nc3cc2F)COC4)[C@@H]2COc3nc(C(F)(F)F)ccc32)cn1
Out: 4

In: Next molecule: Nc1nc2ccc(C(=O)N(CC3CC3)[C@@H]3COc4nc(C(F)(F)F)ccc43)cc2c2cnccc12
Out: 8.6

###

Please provide measured log10(IC50) for the entries that follow.
tested on: HCT116 MTAP knockout cells; assay: Human colon cancer HCT116 cell proliferation inhibition test (CellTiter-Glo, 6 days), MTAP knockout cells; type: cell-based; conditions: HCT-116, 144 h
# values: log10(IC50), units nM

In: API: value(readout=log10(IC50), system=HCT116 MTAP knockout cells) for record Nc1nc2ccc(C(=O)N(c3ncns3)[C@@H]3CCc4cc(C(F)(F)F)ccc43)cc2c2cnccc12
Out: 3.46

In: Next compound: Cn1ncc2c(N)nc3cc(F)c(C(=O)N(c4cscn4)C4CCc5cc(C(F)(F)F)ccc54)cc3c21 (stereo not shown)
Out: 0.60

In: Next compound: Nc1nc2ccc(C(=O)N(CC3CC3)C3COc4cc(C(F)(F)F)ccc43)cc2c2cnccc12 (stereo not shown)
Out: 1.18

In: Next compound: Cn1cc(N(Cc2ccc(C(F)(F)F)cn2)C(=O)c2cc3c(cc2F)nc(N)c2cnn(C)c23)cn1 [compound 3, reference compound]
Out: 0.95

In: Next compound: Cn1cc(N(C(=O)c2cc3c4c(c(N)nc3cc2F)COC4)C2CCc3nc(C(F)(F)F)ccc32)cn1 (stereo not shown)
Out: 1.23

In: Next compound: Nc1nc2ccc(C(=O)N(CC3CC3)[C@@H]3COc4cc(C(F)(F)F)ccc43)cc2c2cnccc12
Out: 0.56

In: Next compound: Cn1cc(N(C(=O)c2cc3c(cc2F)nc(N)c2cnn(C)c23)[C@@H]2CCc3cc(C(F)(F)F)ccc32)cn1
Out: 0.48

###

system: HCT116 MTAP knockout cells; assay: Human colon cancer HCT116 cell proliferation inhibition test (CellTiter-Glo, 6 days), MTAP knockout cells; assay type: cell-based; settings: HCT-116, 144 h
Threshold check on IC50: strictly below 0.009 µM is y; on or above 0.009 µM is n.

In: hey, is IC50 for Cn1cc(N(C(=O)c2cc3c(cc2F)nc(N)c2cnn(C)c23)C2CCc3cc(C(F)(F)F)ccc32)cn1 (centres unmarked) lower than 0.009 µM or not?
Out: y

In: Next molecule: Nc1nc2cc(F)c(C(=O)N(CC3CC3)[C@@H]3COc4nc(C(F)(F)F)ccc43)cc2c2cnccc12
Out: n

In: Next molecule: Nc1nc2cc(F)c(C(=O)N(c3cscn3)[C@@H]3CCc4cc(C(F)(F)F)ccc43)cc2c2c1COC2
Out: y

In: Next molecule: Cn1ccc(N(C(=O)c2cc3c(cc2F)nc(N)c2cnn(C)c23)[C@@H]2CCc3cc(C(F)(F)F)ccc32)n1
Out: y

In: Next molecule: Cn1ncc2c(N)nc3cc(O)c(C(=O)N(c4nccs4)[C@@H]4CCc5cc(C(F)(F)F)ccc54)cc3c21
Out: n

In: Next molecule: Nc1nc2ccc(C(=O)N(CC3CC3)C3COc4nc(C(F)(F)F)ccc43)cc2c2cnccc12 (centres unmarked)
Out: n

In: Next molecule: Cn1ncc2c(N)nc3cc(F)c(C(=O)N(CC(F)(F)F)C4COc5cc(C(F)(F)F)ccc54)cc3c21 (centres unmarked)
Out: n

In: Next molecule: Cn1ncc2c(N)nc3cc(F)c(C(=O)N(Cc4cscn4)C4CCc5cc(C(F)(F)F)ccc54)cc3c21 (centres unmarked)
Out: n

In: Next molecule: Nc1nc2ccc(C(=O)N(c3cnsc3)[C@@H]3CCc4cc(C(F)(F)F)ccc43)cc2c2cnccc12
Out: y

In: Next molecule: Nc1nc2cc(Cl)c(C(=O)N(CC3CC3)[C@@H]3COc4nc(C(F)(F)F)ccc43)cc2c2cnccc12
Out: n

In: Next molecule: Nc1nc2cc(F)c(C(=O)N(CC3CC3)[C@@H]3CCc4nc(C(F)(F)F)ccc43)cc2c2cnccc12
Out: n

In: Next molecule: Nc1nc2cc(Cl)c(C(=O)N(CC3CC3)[C@@H]3COc4cc(C(F)(F)F)ccc43)cc2c2cnccc12
Out: n

In: Next molecule: Cn1ncc2c(N)nc3cc(F)c(C(=O)N(CC(F)(F)F)[C@H]4COc5cc(C(F)(F)F)ccc54)cc3c21
Out: n
